molecular target: Fatty acid synthase (Homo sapiens); assay: inhibition of human FAS-TE enzyme activity – biochemical, endpoint fluorescence intensity, uHTS hits, dose response (AID 624327); type: functional;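 also: fluorescence from hydrolysis of an O-methyl fluorescein acyl ester substrate by the enzyme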
Sequence (P49327 whole entry): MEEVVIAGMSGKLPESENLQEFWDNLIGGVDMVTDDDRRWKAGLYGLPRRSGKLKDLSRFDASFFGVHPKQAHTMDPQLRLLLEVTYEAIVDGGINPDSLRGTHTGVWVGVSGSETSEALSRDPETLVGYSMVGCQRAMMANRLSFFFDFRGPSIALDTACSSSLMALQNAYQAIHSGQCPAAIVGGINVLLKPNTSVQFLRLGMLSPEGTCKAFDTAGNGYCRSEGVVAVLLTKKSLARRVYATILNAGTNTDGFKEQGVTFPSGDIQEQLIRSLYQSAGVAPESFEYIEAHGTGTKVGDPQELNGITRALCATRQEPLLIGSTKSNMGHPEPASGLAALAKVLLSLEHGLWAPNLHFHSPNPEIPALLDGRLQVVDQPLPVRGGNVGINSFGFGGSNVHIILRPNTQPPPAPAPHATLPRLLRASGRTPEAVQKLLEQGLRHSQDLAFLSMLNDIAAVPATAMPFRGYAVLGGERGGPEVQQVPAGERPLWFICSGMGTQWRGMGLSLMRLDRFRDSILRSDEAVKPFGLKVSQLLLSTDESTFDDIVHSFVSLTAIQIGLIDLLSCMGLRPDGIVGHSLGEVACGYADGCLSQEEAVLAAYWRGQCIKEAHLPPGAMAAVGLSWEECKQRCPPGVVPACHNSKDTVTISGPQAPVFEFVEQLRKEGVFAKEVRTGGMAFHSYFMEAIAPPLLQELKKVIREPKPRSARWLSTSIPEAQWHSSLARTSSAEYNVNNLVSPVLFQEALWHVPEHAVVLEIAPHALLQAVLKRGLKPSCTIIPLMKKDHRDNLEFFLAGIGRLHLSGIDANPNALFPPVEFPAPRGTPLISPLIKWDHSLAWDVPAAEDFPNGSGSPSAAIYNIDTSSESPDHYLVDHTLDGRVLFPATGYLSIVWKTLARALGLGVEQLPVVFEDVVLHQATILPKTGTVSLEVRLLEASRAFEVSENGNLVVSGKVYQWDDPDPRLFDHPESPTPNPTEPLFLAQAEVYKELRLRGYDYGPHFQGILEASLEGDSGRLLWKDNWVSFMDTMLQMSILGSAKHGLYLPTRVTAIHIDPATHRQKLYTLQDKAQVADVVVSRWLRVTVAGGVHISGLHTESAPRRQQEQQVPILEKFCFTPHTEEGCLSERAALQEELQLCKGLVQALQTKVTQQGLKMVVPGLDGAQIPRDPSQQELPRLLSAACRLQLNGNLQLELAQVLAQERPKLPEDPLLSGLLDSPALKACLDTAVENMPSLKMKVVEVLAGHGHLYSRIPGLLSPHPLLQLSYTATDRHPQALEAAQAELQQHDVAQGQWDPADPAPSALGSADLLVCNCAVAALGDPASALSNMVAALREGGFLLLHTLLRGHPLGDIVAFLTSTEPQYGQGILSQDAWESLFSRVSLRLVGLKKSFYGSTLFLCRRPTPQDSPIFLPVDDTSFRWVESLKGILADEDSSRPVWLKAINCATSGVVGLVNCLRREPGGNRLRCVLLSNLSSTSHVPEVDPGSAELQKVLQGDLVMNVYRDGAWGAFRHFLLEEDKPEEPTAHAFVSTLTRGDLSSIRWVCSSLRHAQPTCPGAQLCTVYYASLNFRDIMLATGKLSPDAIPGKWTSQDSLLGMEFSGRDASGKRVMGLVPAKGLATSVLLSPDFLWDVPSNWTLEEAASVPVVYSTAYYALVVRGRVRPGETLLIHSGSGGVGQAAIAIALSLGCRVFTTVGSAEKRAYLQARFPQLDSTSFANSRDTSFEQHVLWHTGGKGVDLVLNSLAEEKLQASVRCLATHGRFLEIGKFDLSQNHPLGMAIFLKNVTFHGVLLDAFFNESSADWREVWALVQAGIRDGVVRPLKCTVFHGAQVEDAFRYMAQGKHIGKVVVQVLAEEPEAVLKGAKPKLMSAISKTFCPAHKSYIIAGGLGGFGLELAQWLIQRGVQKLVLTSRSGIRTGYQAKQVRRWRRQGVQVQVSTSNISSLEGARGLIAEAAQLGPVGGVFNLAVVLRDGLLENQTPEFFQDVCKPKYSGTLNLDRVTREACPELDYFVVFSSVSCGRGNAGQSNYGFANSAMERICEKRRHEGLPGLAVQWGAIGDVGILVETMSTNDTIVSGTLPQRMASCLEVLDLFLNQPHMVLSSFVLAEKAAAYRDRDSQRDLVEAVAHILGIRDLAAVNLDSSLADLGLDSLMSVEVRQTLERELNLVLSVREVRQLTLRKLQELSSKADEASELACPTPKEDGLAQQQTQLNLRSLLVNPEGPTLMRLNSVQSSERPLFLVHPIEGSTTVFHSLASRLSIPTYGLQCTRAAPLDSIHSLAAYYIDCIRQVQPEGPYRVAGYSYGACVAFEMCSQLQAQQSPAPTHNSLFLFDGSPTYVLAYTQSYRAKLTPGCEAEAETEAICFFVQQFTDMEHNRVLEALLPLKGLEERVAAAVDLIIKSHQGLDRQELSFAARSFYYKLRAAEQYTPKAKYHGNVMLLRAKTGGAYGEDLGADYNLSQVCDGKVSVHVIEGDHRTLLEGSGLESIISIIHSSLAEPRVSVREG
The source made the active and inactive calls. Rule as the data show it: active = IC50 of 20 µM or less and inactive = more.
Entry note: the call must match one of true (active), false (inactive)

Solved cases below.
[[record]]
compound = "CCS(=O)(=O)c1ccc2oc(Nc3ccc(C(C)C)cc3)nc2c1"
answer_label = "false"

[[record]]
compound = "CCn1cc(C(=O)NCc2ccc(Cl)cc2)c(=O)c2cc(S(=O)(=O)N(C)C)ccc21"
answer_label = "true"

[[record]]
compound = "O=C(CSc1ncnc2c1nnn2Cc1ccccc1)NC1CCCCC1"
answer_label = "false"

[[record]]
compound = "COc1ccc(-c2nn(-c3ccccc3)cc2/C=C/C(=O)O)cc1[N+](=O)[O-]"
answer_label = "true"

[[record]]
compound = "COc1ccc([N+](=O)[O-])cc1N(CC(O)Cn1nnc2ccccc21)S(=O)(=O)c1ccc(C)cc1 (centres undefined)"
answer_label = "true"

[[record]]
compound = "CC(=O)c1cccc(-c2ccnc3c2CC(C(=O)Nc2ccc(C(C)C)cc2)O3)c1 (centres undefined)"
answer_label = "true"


Please indicate how the test categorized `O=C(COC(=O)C1CCCCC1)Nc1cc([N+](=O)[O-])ccc1F` . true

Please indicate how the test categorized `Cc1ccc(C)c(S(=O)(=O)N2CCN(C(=O)Cc3ccc(S(=O)(=O)N4CCOCC4)s3)CC2)c1` . true

Please indicate how the test categorized `CC(C)(C)N(Cc1ccccc1)C(=O)COC(=O)c1cccc([N+](=O)[O-])c1` . true
